# System: 171881-019-R-J1-PDC tumor spheroid viability
# protocolDetails: Anticancer human tumor 171881-019-R-J1-PDC patient-derived invasive breast carcinoma cell line growth inhibition [PI3K]
# assayConditions: second compound 0.316 µM; first compound 0.000316 µM; stronger effect = lower value; spheroids with HUVEC and MSC
Some compounds, each annotated with its measured viability, T/C.
Your answer is read as %, so omit the unit and give the number.

Solved entries (count: 2):
{"compound": "CC(=O)c1c(C)c2cnc(Nc3ccc(N4CCNCC4)cn3)nc2n(C2CCCC2)c1=O + Cc1nc(NC(=O)N2CCCC2C(N)=O)sc1-c1ccnc(C(C)(C)C(F)(F)F)c1", "unitOfMeasure": "%", "measuredResult": 57.9}
{"compound": "Cn1ncnc1[C@H]1c2n[nH]c(=O)c3cc(F)cc(c23)N[C@@H]1c1ccc(F)cc1 + Cc1nc(NC(=O)N2CCCC2C(N)=O)sc1-c1ccnc(C(C)(C)C(F)(F)F)c1", "unitOfMeasure": "%", "measuredResult": 50.2}

Okay, next one:
The measured viability, T/C associated with CC(=O)c1c(C)c2cnc(Nc3ccc(N4CCNCC4)cn3)nc2n(C2CCCC2)c1=O + CC(Nc1ccc2c(c1)OCCn1cc(N3C(=O)OCC3C(F)F)nc1-2)C(N)=O reads 26.7

====

# System: 171881-019-R-J1-PDC tumor spheroid viability
# protocolDetails: Anticancer human tumor 171881-019-R-J1-PDC cell line growth inhibition [PI3K]; active means viability on the fitted dose curve at most 10% of control; inactive means the rest;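 further: spheroids exposed to compound for 7 days before viability read; 100% = DMSO vehicle-treated spheroids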
# assayConditions: second compound 0.1 µM; first compound 3 µM; spheroids with HUVEC and MSC
Write down the outcome that applies. Available outcomes: True = active, False = inactive

Below are worked cases with known answers.
{"compound": "Cn1cnc2c(F)c(Nc3ccc(Br)cc3Cl)c(C(=O)NOCCO)cc21 + CC(Nc1ncnc2nc[nH]c12)c1cc2cccc(Cl)c2c(=O)n1-c1ccccc1", "targetUnderTest": "171881-019-R-J1-PDC tumor spheroid viability", "classLabel": "False"}
{"compound": "Cn1cnc2c(F)c(Nc3ccc(Br)cc3Cl)c(C(=O)NOCCO)cc21 + COc1c(OCCCN2CCOCC2)ccc2c3n(c(=NC(=O)c4cnc(N)nc4)nc12)CCN3", "targetUnderTest": "171881-019-R-J1-PDC tumor spheroid viability", "classLabel": "True"}
{"compound": "Cn1cnc2c(F)c(Nc3ccc(Br)cc3Cl)c(C(=O)NOCCO)cc21 + CC(Nc1ccc2c(c1)OCCn1cc(N3C(=O)OCC3C(F)F)nc1-2)C(N)=O", "targetUnderTest": "171881-019-R-J1-PDC tumor spheroid viability", "classLabel": "True"}

# ---- query compound ----
Field: outcome | Entry: Cn1cnc2c(F)c(Nc3ccc(Br)cc3Cl)c(C(=O)NOCCO)cc21 + Cc1nc(NC(=O)N2CCCC2C(N)=O)sc1-c1ccnc(C(C)(C)C(F)(F)F)c1 False

====

# Test system: 171881-019-R-J1-PDC tumor spheroid viability
# protocolDetails: Anticancer human tumor 171881-019-R-J1-PDC cell line growth inhibition [PI3K]; active = viability on the fitted dose curve at most 10% of control; inactive = the rest;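 further: spheroids exposed to compound for 7 days before viability read; 100% = DMSO vehicle-treated spheroids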
# assayConditions: second compound 0.0316 µM; first compound 10 µM; spheroids with HUVEC and MSC
# From the text: Combinatorial screen of targeted agents with the PI3K inhibitors inavolisib, alpelisib, duvelisib, and copanlisib in multi-cell type tumor spheroids A high-throughput screen of multi-cell type tumor spheroids was designed to identify active combinations of targeted small molecules and PI3K pathway inhibitors. […] Compounds. […] If the clinical Cmax for an agent had not been determined, the highest concentration tested was 10 microM. […]
# valid calls are active, inactive; nothing else

The following compounds have reported results that may help.
{"compound": "CNC(=O)c1ccc(N2C(=S)N(c3ccc(C#N)c(C(F)(F)F)c3)C(=O)C2(C)C)cc1F + CC(Nc1ccc2c(c1)OCCn1cc(N3C(=O)OCC3C(F)F)nc1-2)C(N)=O", "classLabel": "inactive"}
{"compound": "Cn1nccc1Nc1nccc(-c2ccn(C(CO)c3ccc(Cl)c(F)c3)c(=O)c2)n1 (stereo not given) + COc1c(OCCCN2CCOCC2)ccc2c3n(c(=NC(=O)c4cnc(N)nc4)nc12)CCN3", "classLabel": "active"}
{"compound": "CC(Cn1ccc(-c2ccc(C#N)c(Cl)c2)n1)NC(=O)c1cc(C(C)O)[nH]n1 (stereo not given) + COc1c(OCCCN2CCOCC2)ccc2c3n(c(=NC(=O)c4cnc(N)nc4)nc12)CCN3", "classLabel": "inactive"}
{"compound": "CNC(=O)c1ccc(N2C(=S)N(c3ccc(C#N)c(C(F)(F)F)c3)C(=O)C2(C)C)cc1F + Cc1nc(NC(=O)N2CCCC2C(N)=O)sc1-c1ccnc(C(C)(C)C(F)(F)F)c1", "classLabel": "inactive"}

# lookup: test call for CC1(C)CCC(Nc2ncc(C(F)(F)F)c(-c3c[nH]c4c(P(C)(C)=O)c(C#N)ccc34)n2)CN1 (stereo not given) + CC(Nc1ncnc2nc[nH]c12)c1cc2cccc(Cl)c2c(=O)n1-c1ccccc1 inactive

====

# System: 171881-019-R-J1-PDC tumor spheroid viability
# protocolDetails: Anticancer human tumor 171881-019-R-J1-PDC cell line growth inhibition [PI3K];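 further: spheroids exposed to compound for 7 days before viability read; 100% = DMSO vehicle-treated spheroids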
# assayConditions: second compound 0.0316 µM; first compound 0.316 µM; stronger effect = lower value; spheroids with HUVEC and MSC
Reported viability, T/C is given for each of the following compounds.
Write it as a number; the unit % goes unstated.

Consider the reported viability, T/C for these compounds:
{"compound": "C[C@@H](NC(=O)c1ncnc(N)c1Cl)c1ncc(C(=O)Nc2cc(C(F)(F)F)c(Cl)cn2)s1 + CC(Nc1ccc2c(c1)OCCn1cc(N3C(=O)OCC3C(F)F)nc1-2)C(N)=O", "viability, T/C (%)": 49.5}
{"compound": "CCN1CCN(Cc2ccc(Nc3ncc(F)c(-c4cc(F)c5nc(C)n(C(C)C)c5c4)n3)nc2)CC1 + CC(Nc1ccc2c(c1)OCCn1cc(N3C(=O)OCC3C(F)F)nc1-2)C(N)=O", "viability, T/C (%)": 80.8}
{"compound": "CC(Cn1ccc(-c2ccc(C#N)c(Cl)c2)n1)NC(=O)c1cc(C(C)O)[nH]n1 (stereo not given) + CC(Nc1ccc2c(c1)OCCn1cc(N3C(=O)OCC3C(F)F)nc1-2)C(N)=O", "viability, T/C (%)": 54.4}

Short answer for CC1(C)CCC(CN2CCN(c3ccc(C(=O)NS(=O)(=O)c4ccc(NCC5CCOCC5)c([N+](=O)[O-])c4)c(Oc4cnc5[nH]ccc5c4)c3)CC2)=C(c2ccc(Cl)cc2)C1 + Cc1nc(NC(=O)N2CCCC2C(N)=O)sc1-c1ccnc(C(C)(C)C(F)(F)F)c1 : viability, T/C was 90.8

Entry CCCS(=O)(=O)Nc1ccc(F)c(C(=O)c2c[nH]c3ncc(-c4ccc(Cl)cc4)cc23)c1F + Cc1nc(NC(=O)N2CCCC2C(N)=O)sc1-c1ccnc(C(C)(C)C(F)(F)F)c1 — recorded viability, T/C = 97.2

====

# Tested on: 171881-019-R-J1-PDC tumor spheroid viability
# protocolDetails: Anticancer human tumor 171881-019-R-J1-PDC cell line growth inhibition [PI3K];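 further: spheroids exposed to compound for 7 days before viability read; 100% = DMSO vehicle-treated spheroids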
# assayConditions: second compound 0.0316 µM; first compound 0.316 µM; stronger effect = lower value; spheroids with HUVEC and MSC
# maps each entry to its viability, T/C

Here is how some compounds turned out for viability, T/C.
{"compound": "Cn1ncc(Cl)c1-c1cc(C(=O)NC(CN)Cc2cccc(F)c2)sc1Cl (configuration not stated) + COc1c(OCCCN2CCOCC2)ccc2c3n(c(=NC(=O)c4cnc(N)nc4)nc12)CCN3", "targetUnderTest": "171881-019-R-J1-PDC tumor spheroid viability", "measuredResult": "15.6%"}
{"compound": "C[C@@H](NC(=O)c1ncnc(N)c1Cl)c1ncc(C(=O)Nc2cc(C(F)(F)F)c(Cl)cn2)s1 + CC(Nc1ncnc2nc[nH]c12)c1cc2cccc(Cl)c2c(=O)n1-c1ccccc1", "targetUnderTest": "171881-019-R-J1-PDC tumor spheroid viability", "measuredResult": "86.3%"}
{"compound": "C#Cc1c(F)ccc2cc(O)cc(-c3ncc4c(N5CC6CCC(C5)N6)nc(OCC56CCCN5CC(F)C6)nc4c3F)c12 (configuration not stated) + COc1c(OCCCN2CCOCC2)ccc2c3n(c(=NC(=O)c4cnc(N)nc4)nc12)CCN3", "targetUnderTest": "171881-019-R-J1-PDC tumor spheroid viability", "measuredResult": "10%"}
{"compound": "C=CC(=O)N1CCN(c2nc(=O)n(-c3c(C)ccnc3C(C)C)c3nc(-c4c(O)cccc4F)c(F)cc23)C(C)C1 (configuration not stated) + CC(Nc1ncnc2nc[nH]c12)c1cc2cccc(Cl)c2c(=O)n1-c1ccccc1", "targetUnderTest": "171881-019-R-J1-PDC tumor spheroid viability", "measuredResult": "94.6%"}
{"compound": "CCN1CCN(Cc2ccc(Nc3ncc(F)c(-c4cc(F)c5nc(C)n(C(C)C)c5c4)n3)nc2)CC1 + COc1c(OCCCN2CCOCC2)ccc2c3n(c(=NC(=O)c4cnc(N)nc4)nc12)CCN3", "targetUnderTest": "171881-019-R-J1-PDC tumor spheroid viability", "measuredResult": "44.6%"}
{"compound": "CC1(C)CCC(CN2CCN(c3ccc(C(=O)NS(=O)(=O)c4ccc(NCC5CCOCC5)c([N+](=O)[O-])c4)c(Oc4cnc5[nH]ccc5c4)c3)CC2)=C(c2ccc(Cl)cc2)C1 + CC(Nc1ncnc2nc[nH]c12)c1cc2cccc(Cl)c2c(=O)n1-c1ccccc1", "targetUnderTest": "171881-019-R-J1-PDC tumor spheroid viability", "measuredResult": "80.3%"}

// below: viability, T/C requested for another compound
C[C@@H](NC(=O)c1ncnc(N)c1Cl)c1ncc(C(=O)Nc2cc(C(F)(F)F)c(Cl)cn2)s1 + COc1c(OCCCN2CCOCC2)ccc2c3n(c(=NC(=O)c4cnc(N)nc4)nc12)CCN3 yielded viability, T/C of 26%
